Molecular target: hPTP1B1–400 (Homo sapiens)
Sequence (P18031 1-400): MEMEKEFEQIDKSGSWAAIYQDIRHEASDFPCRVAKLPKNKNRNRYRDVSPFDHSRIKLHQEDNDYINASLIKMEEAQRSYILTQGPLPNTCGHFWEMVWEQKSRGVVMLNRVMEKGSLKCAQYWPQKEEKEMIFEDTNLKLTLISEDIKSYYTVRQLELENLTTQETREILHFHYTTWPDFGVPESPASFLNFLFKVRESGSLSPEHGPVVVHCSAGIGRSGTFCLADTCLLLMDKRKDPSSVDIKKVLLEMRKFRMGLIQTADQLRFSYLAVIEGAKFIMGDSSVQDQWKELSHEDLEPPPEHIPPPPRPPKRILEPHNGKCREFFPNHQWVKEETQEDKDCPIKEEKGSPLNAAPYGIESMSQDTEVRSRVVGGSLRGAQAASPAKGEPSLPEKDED
Assay: PTP1B inhibition assay (pNPP, spectrocolorimetric), long form
Conditions: IC50 ± SD hPTP1B1–400, hPTP1B 66 nM, pNPP 0.5 mM, 37 °C, 15 min
READOUT LABEL: IC50 (µM)
Express your answer in µM, writing the number without its unit.

MOLECULE	TARGET DESC	READOUT LABEL	TEST VALUE
COc1ccc(CNC[C@]2(O)CC[C@]3(C)C4CC[C@@]5(C)C(CCC5[C@H](C)CCC(=O)O)C4CC[C@@H]3C2)cc1.Cl (stereo partly shown) [compound 6d]	hPTP1B1–400 (Homo sapiens)	IC50	26.6

Requested field: IC50. Item: Cc1cccc(CNC[C@]2(O)CC[C@]3(C)C4CC[C@@]5(C)C(CCC5[C@H](C)CCC(=O)O)C4CC[C@@H]3C2)c1 (stereo partly shown) [compound 6e] 16.3

Any idea what its IC50 is? The molecule is C[C@H](CCC(=O)O)C1CCC2C3CC[C@@H]4C[C@](O)(CNCc5ccccc5)CC[C@]4(C)C3CC[C@@]21C (stereo partly shown) [compound 6a] 33.1

Any idea what its IC50 is? The molecule is COc1cccc(CNC[C@]2(O)CC[C@]3(C)C4CC[C@@]5(C)C(CCC5[C@H](C)CCC(=O)O)C4CC[C@@H]3C2)c1.Cl (stereo partly shown) [compound 6c] 10.5

###

Biological target: hPTP1B1–400 (Homo sapiens, UniProt P18031)
Sequence (P18031 1-400): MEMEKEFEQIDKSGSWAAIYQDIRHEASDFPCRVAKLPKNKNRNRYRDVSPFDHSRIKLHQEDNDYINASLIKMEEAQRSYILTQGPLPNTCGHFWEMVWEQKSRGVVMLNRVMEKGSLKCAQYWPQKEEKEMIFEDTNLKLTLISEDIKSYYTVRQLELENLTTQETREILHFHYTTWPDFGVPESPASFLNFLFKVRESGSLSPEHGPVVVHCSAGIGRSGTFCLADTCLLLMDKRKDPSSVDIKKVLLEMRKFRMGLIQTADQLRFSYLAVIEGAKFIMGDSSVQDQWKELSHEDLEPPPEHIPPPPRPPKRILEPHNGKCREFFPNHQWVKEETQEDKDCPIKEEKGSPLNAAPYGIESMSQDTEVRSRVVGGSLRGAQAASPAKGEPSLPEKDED
Assay: Enzyme kinetics (Lineweaver–Burk, varying pNPP)
Conditions: hPTP1B1–400, pNPP 0.1–0.5 mM
READOUT LABEL: Vmax (mM/min)
Report as a plain number; the unit mM/min is understood.

Illustrative cases are given below, each with its answer.
MOLECULE	UNITS OF MEASURE	TEST VALUE
C[C@H](CCC(=O)O)C1CCC2C3CC[C@@H]4C[C@](O)(CNCc5ccc(C(=O)O)cc5)CC[C@]4(C)C3CC[C@@]21C.Cl (stereo partly drawn)	mM/min	1.41
C[C@H](CCC(=O)O)C1CCC2C3CC[C@@H]4C[C@](O)(CNCc5cccc(C(F)(F)F)c5)CC[C@]4(C)C3CC[C@@]21C.Cl (stereo partly drawn)	mM/min	1.05

Could you tell me which Vmax is on file for C[C@H](CCC(=O)O)C1CCC2C3CC[C@@H]4C[C@](O)(CNCc5ccc(C(F)(F)F)cc5)CC[C@]4(C)C3CC[C@@]21C.Cl (stereo partly drawn) ? 0.73
